Provide the reported MA - fall of optical density of plasma, % to the standard of each item.
Test system: adenosine-sensitive receptors of thrombocytes
test: ADP-induced aggregation of thrombocytes in vitro (Born method)
Assay type: cell-based, rabbit
measurement parameters: 10^−5 M; 3 min incubation; ADP 10^−5 M
One number for each entry, in %.

Answered cases to consult:
smiles structure: O=c1[nH][nH]c(=O)c2c(Br)ncnc12.[K]
unit name: %
observed result: 40.6
//
smiles structure: O=c1[nH][nH]c(=O)c2nccnc12.[Li]
unit name: %
observed result: 43.4

Continue with the next compound.
Supply MA - fall of optical density of plasma, % to the standard value. Item: `O=c1[nH]n([C@@H]2O[C@H](CO)[C@@H](O)[C@H]2O)c(=O)c2ccccc12.[Na]`
41.4

---

test: Chronic toxicity, rectal suppositories: biochemical indexes of blood serum
measurement parameters: male rats, 1 month, suppositories 50 mg/kg
measured metric: Glucose (mM)
Give bare numbers, in mM.

Supply Glucose value. Item: `Nc1ccnc2c(=O)n([C@@H]3O[C@H](CO)[C@@H](O)[C@H]3O)[nH]c(=O)c12`
9.85

---

System: plasma hemostasis
test: Thrombin time after intravenous administration
Assay type: in vivo, rabbit
measurement parameters: dose 30.0 mg/kg intravenously
Marks after values point to notes of the source that are not given here.
measured metric: T2, s After 120 minutes (thrombin time)

Below is a list of compounds. For each, state its recorded T2, s After 120 minutes (thrombin time).
1. Nc1cnc2c(=O)n([C@@H]3O[C@H](CO)[C@@H](O)[C@H]3O)[nH]c(=O)c2n1.[Na] [Compound 21]
2. Nc1cccc2c(=O)[nH][nH]c(=O)c12.[Na] [Compound 15]
3. O=c1[nH][nH]c(=O)c2c(Br)ncnc12.[K] [Compound 37]
4. Nc1ccnc2c(=O)n([C@@H]3O[C@H](CO)[C@@H](O)[C@H]3O)[nH]c(=O)c12 [Compound 2]

1: 15.6* s; 2: 15.0* s; 3: 15.2* s; 4: 15.3* s

---

System: plasma hemostasis
test: Autocoagulation test (coagulating activity A) after intravenous administration
Assay type: in vivo, rabbit
measurement parameters: dose 30.0 mg/kg intravenously
measured metric: A, % after 60 minutes (coagulating activity) (%)
Numbers only, in %.

smiles structure: Nc1cnc2c(=O)n([C@@H]3O[C@H](CO)[C@@H](O)[C@H]3O)[nH]c(=O)c2n1.[Na]
observed result: 103.7

smiles structure: O=c1[nH][nH]c(=O)c2c(Br)ncnc12.[K]
observed result: 105.8

smiles structure: Nc1cccc2c(=O)[nH][nH]c(=O)c12.[Na]
observed result: 106.6

Continue with the next compound.
Quote A, % after 60 minutes (coagulating activity) with test system plasma hemostasis for `Nc1ccnc2c(=O)n([C@@H]3O[C@H](CO)[C@@H](O)[C@H]3O)[nH]c(=O)c12`
104.2

---

Tested on: plasma hemostasis
test: Thrombin time after intravenous administration
Format: in vivo, rabbit
measurement parameters: dose 60.0 mg/kg intravenously
Marks after values point to notes of the source that are not given here.
measured metric: T2, s After 120 minutes (thrombin time)

Answered cases to consult:
smiles structure: Nc1cccc2c(=O)[nH][nH]c(=O)c12.[Na]
T2, s After 120 minutes (thrombin time): 14.7* s
--
smiles structure: Nc1cnc2c(=O)n([C@@H]3O[C@H](CO)[C@@H](O)[C@H]3O)[nH]c(=O)c2n1.[Na]
T2, s After 120 minutes (thrombin time): 15.7* s
--
smiles structure: O=c1[nH][nH]c(=O)c2c(Br)ncnc12.[K]
T2, s After 120 minutes (thrombin time): 15.0* s

Continue with the next compound.
Supply T2, s After 120 minutes (thrombin time) value. Item: `Nc1ccnc2c(=O)n([C@@H]3O[C@H](CO)[C@@H](O)[C@H]3O)[nH]c(=O)c12`
15.3* s
